# System: COLO 205 colon
Pick one: YES for active, NO for inactive

CN(C)CCN1C(=O)c2cccc3c(/C=C/CN4C(=O)c5cccc6cccc(c56)C4=O)ccc(c23)C1=O :: NO

Input: Recorded call for CCCCC#Cc1c(I)n(C2OC(CO[Si](C)(C)C(C)(C)C)C3OC(C)(C)OC32)c(=O)n(C(=O)c2ccccc2)c1=O (configuration not stated) ?
Output: NO

Input: Recorded call for CN1CCN(Cc2ccc(NC(=O)c3[nH]ncc3Nc3ncnc4[nH]ccc34)cc2)CC1 ?
Output: YES

Input: Recorded call for CCN(CC)CCCNCc1cc(-c2ccccc2)nc2cc(Cl)ccc12 ?
Output: NO

Input: Recorded call for Cc1ccc2oc(=O)c3c(O)c4cccc(OC5OC(C)C6O[C@@H](c7ccccc7)OC6C5OC5OC(C)C(O)C(O)C5O)c4c4oc(=O)c1c2c34 (some centres not stated) ?
Output: YES

Input: Recorded call for O=C1NC(=O)C(=Cc2cn(Cc3ccccc3)c3ccccc23)C(=O)N1 ?
Output: NO

====

# System: SK-MEL-5 melanoma
# procedureText: NCI tumour cell line growth inhibition, 48 h
measuredEndpoint: TGI

Record excerpt, results attached:
CCOC(=O)c1cc2c3c(c(C(C)=O)c(OC)c2[nH]1)N(C(=O)CC)CC3 :: 24.5 µM
CS(=O)(=O)c1ccc(COP(N)(=O)N(CCCl)CCCl)cc1 (stereo not drawn) :: > 100 µM
CC(c1ccccc1)n1cncc1C(=O)NN1CCN(C)CC1 (stereo not drawn) :: > 10 µM

Input: Please report TGI for the following compound: CC(C)(C)c1ccc(C2CC(=O)C3=C(C2)Nc2ccccc2N(C(=O)c2ccccc2Cl)C3c2ccc(F)cc2)cc1 (stereo not drawn)
Output: > 100 µM

Input: Please report TGI for the following compound: O=C1CC(C2(O)C(=O)Nc3ccc([N+](=O)[O-])cc32)c2ccccc21 (stereo not drawn)
Output: 75.6 µM

Input: Please report TGI for the following compound: Cc1nc(C)c(N2CCN(CN)CC2)c(=O)[nH]1
Output: > 100 µM

Input: Please report TGI for the following compound: O=C1CS/C(=N/S(=O)(=O)c2ccc(N3N=C4c5ccccc5CC4C3c3cccs3)cc2)N1C(=O)c1ccccc1 (stereo not drawn)
Output: 69.6 µM

Input: Please report TGI for the following compound: CCCCCCC(=O)C/C(CCC(=O)N(Cc1ccccc1)Cc1ccccc1)=N\NC(N)=O
Output: > 100 µM

====

# Test system: SF-268 CNS
# procedureText: NCI tumour cell line growth inhibition, 48 h
measuredEndpoint: GI50

COc1cc(/C=C/C(=O)CC(=O)/C=C/c2cc(OC)c(O)c(OC)c2)cc(OC)c1O :: 9.06 µM
Cc1c(Nc2nccc3cc(CN4CC[C@@H](O)C4)cnc23)cccc1-c1cccc(-c2nc3cc(CN4CC[C@@H](C(=O)O)C4)cc(C#N)c3o2)c1C :: 10.9 µM

Input: Please report GI50 for the following compound: O=c1cc(-c2ccccc2)[nH]c2c1CCCC2
Output: 7.72 µM

Input: Please report GI50 for the following compound: Fc1ccc2c(c1)C1=C(CCC2)C(c2ccc(Cl)cc2)NC(=S)N1 (stereo not given)
Output: 83.8 µM

Input: Please report GI50 for the following compound: O=C(O)COc1ccc(OCC(=O)O)cc1
Output: 0.584 µM
